Every entry's value here was drawn from ChEMBL document CHEMBL1141713.

Test: Inhibition of the ATP-mediated HIV1 reverse transcriptase D67N/K70R/T215F/K219Q mutant catalyzed 3'-azido, 3'-deoxythymidine excision from AZT-terminated DNA primers
Design: species or system Human immunodeficiency virus 1
READOUT NAME: pIC50

• CCCCCCCCCCCC(O)(P(=O)(O)O)P(=O)(O)O = 3.5
• O=P(O)(O)C(O)(Cc1ccc(-c2ccc(Cl)cc2)cc1)P(=O)(O)O = 5.4
• COc1ccc(-c2cccc(CC(O)(P(=O)(O)O)P(=O)(O)O)c2)cc1 = 5.6
• O=P(O)(O)C(O)(Cc1cccc(-c2ccc(Cl)cc2)c1)P(=O)(O)O = 6.1
• O=P(O)(O)C(O)(Cc1cccc(-c2ccc(F)c(F)c2)c1)P(=O)(O)O = 6
• CCCCCCCCCC(O)(P(=O)(O)O)P(=O)(O)O = 3.5
• O=P(O)(O)C(O)(Cc1ccc(-c2ccc(F)cc2)cc1)P(=O)(O)O = 5.5
• O=P(O)(O)C(Nc1cccc(-c2cc(F)cc(F)c2)c1)P(=O)(O)O = 5.7
• O=P(O)(O)C(Nc1cccc(-c2ccccc2)c1)P(=O)(O)O = 5.5
• CCCCCCCc1ccc(NC(P(=O)(O)O)P(=O)(O)O)cc1 = 3.5
• COc1cccc(CC(O)(P(=O)(O)O)P(=O)(O)O)c1 = 5.3

###

Experiment: Toxicity against human SF268 cells assessed as growth inhibition by broth microdilution method
Format: cell-based, SF-268
READOUT NAME: IC50

• O=P(O)(O)C(CNc1ccc(-c2ccccc2)cc1)P(=O)(O)O = 95 µM
• O=P(O)(O)C(O)(Cc1ccc(-c2ccc(Cl)cc2)cc1)P(=O)(O)O = > 100 µM
• O=P(O)(O)C(Nc1cccc(-c2cc(F)cc(F)c2)c1)P(=O)(O)O = > 100 µM
• O=P(O)(O)C(O)(Cc1cccc(-c2ccc(F)cc2)c1)P(=O)(O)O = 224 µM
• O=P(O)(O)C(CNc1cccc(-c2ccccc2)c1)P(=O)(O)O = > 300 µM
• COc1cccc(CC(O)(P(=O)(O)O)P(=O)(O)O)c1 = > 300 µM
• O=P(O)(O)C(O)(Cc1cccc(-c2ccc(F)c(F)c2)c1)P(=O)(O)O = 236 µM
• COCc1cccc(NC(P(=O)(O)O)P(=O)(O)O)c1 = > 300 µM
• O=P(O)(O)C(Nc1cccc(-c2ccccc2)c1)P(=O)(O)O = 269 µM
• O=P(O)(O)C(O)(Cc1ccc(-c2ccc(F)cc2)cc1)P(=O)(O)O = > 300 µM
• O=P(O)(O)C(Nc1cccc(Br)c1)P(=O)(O)O = > 300 µM
• O=P(O)(O)C(Nc1cccc(-c2ccc(F)c(F)c2)c1)P(=O)(O)O = > 300 µM
• COc1ccc(-c2cccc(CC(O)(P(=O)(O)O)P(=O)(O)O)c2)cc1 = 139 µM

###

Assay: Toxicity against human NCI-H460 cells assessed as growth inhibition by broth microdilution method
Format: cell-based
READOUT NAME: IC50 (µM)

• O=P(O)(O)C(O)(Cc1cccc(-c2ccc(F)c(F)c2)c1)P(=O)(O)O = 253
• Cc1ccc(NC(P(=O)(O)O)P(=O)(O)O)cc1-c1ccccc1 = 301
• O=P(O)(O)C(O)(Cc1cccc(-c2ccc(F)cc2)c1)P(=O)(O)O = 175
